- Tested on: NCI-H226 lung
- METHOD DESCRIPTION: NCI-60 one-dose screen, 48 h (100 = growth as untreated, 0 = no growth, -100 = all killed)
- EXPERIMENTAL PARAMETERS: 10 µM unless noted
The panel holds about 83,000 compounds, 20% with a hit somewhere; the sample as a whole holds those more often.
Label criterion met when growth is strictly below 40%; at or above that, label criterion not met.

These solved cases illustrate the format of a correct answer.
- CCN(CC)c1ccc2c(c1)Oc1nc(N)c(C#N)c(N)c1C2Sc1ccc(F)cc1 (stereo not drawn): criterion met
- CC1(COc2ccc3ncc(C#Cc4cncc(C(=O)Nc5cccc(C(F)(F)F)c5)c4)n3n2)COC1: criterion met
- CC1(C)[C@@H](O)CC[C@]2(C)[C@H]3CC[C@@H]4[C@H]5[C@H](C(=O)/C=C\c6ccccn6)CC[C@]5(O)CC[C@@]4(C)[C@]3(C)CC[C@@H]12: criterion met

Prompt line: For `NC(N)=Nc1ccc(Oc2cccc(Nc3ccc(Cl)c(C(F)(F)F)c3)c2)cn1` , is the recorded growth below the cut-off of 40%?
Response line: criterion met

Prompt line: Field: below-cutoff. Rule: recorded growth strictly less than 40%. Subject: `C[C@@H](Nc1ncnc2ccc(-c3cnc(Cl)c(NS(C)(=O)=O)c3)cc12)c1ccccc1`
Response line: criterion not met

Prompt line: Hello, I'm reviewing records and need to know if growth of `N/C(=N\C(N)=N\c1nc2ccccc2s1)c1ccc2ccccc2c1` is below 40%. Could you check?
Response line: criterion not met

Prompt line: Item `Cc1ccc(-n2cc(/C=C/C(=O)c3ccc(O)cc3)c(-c3ccc(S(C)(=O)=O)cc3)n2)cc1` : growth beneath 40%, strictly?
Response line: criterion not met

###

- System: HT29 colon
- METHOD DESCRIPTION: NCI-60 one-dose screen, 48 h
- EXPERIMENTAL PARAMETERS: 10 µM unless noted
- Method: Growth inhibition of the HT29 human tumor cell line is measured as a screen for anti-cancer activity. Cells are grown in 96 well plates and exposed to the test compound for 48 hours. Compounds are tested at a single concentration, which is 10^-5 M for most compounds. The reported endpoint is percent growth (GI% or GIPRCNT), where numbers from 0 - 100% represent growth inhibition, and numbers from -100% - 0 represent cell death. For example, a value of 40 represents 60% growth inhibition. […]
This is part of a sample that, as a whole, favours compounds with a hit. Of some 83,000 tested, about 20% had one in any assay. Active and inactive are the calls of the source. Rule for the calls: active = growth percent below 10; inactive = the rest.
Please answer using one outcome listed in T (active), F (inactive)

Reference set, count: 4
- CN(C)CCNC(=O)c1ccc(-c2nc3ccc4[nH]ncc4c3c3c2CCC3)cc1: F
- O=c1[nH]c(Sc2sc3ccc(Cl)cc3c2CBr)nc(=S)[nH]1: F
- O=C1[C@H]2Cc3c([nH]c4ccccc34)[C@@H](c3ccc(Br)cc3)N2C(=O)CN1C1CCN(CC2CCCCC2)CC1: T
- COc1cc(-c2nc3sccn3c2-c2ccnc(S(C)(=O)=O)n2)ccc1F: F

Prompt line: Assay result, entry `Cc1nn(-c2ccccc2)c2ncnc(N/N=C/c3ccccc3O)c12` — outcome?
Response line: F

###

- System: LOX IMVI melanoma
- METHOD DESCRIPTION: NCI-60 one-dose screen, 48 h (100 = growth as untreated, 0 = no growth, -100 = all killed)
- EXPERIMENTAL PARAMETERS: 10 µM unless noted
This is part of a sample that, as a whole, favours compounds with a hit. Of some 83,000 tested, about 20% had one in any assay.
MEASURED PROPERTY: growth (%)
Express it in %; write the number only.

These solved cases illustrate the format of a correct answer.
• NC(=O)c1cccc(C#CCNC[C@H]2C[C@@H](n3ccc4c(Cl)ncnc43)[C@H](O)[C@@H]2O)c1 = 101
• O=C(O)c1ccc(-n2cc(CNc3cc(F)c(F)c(F)c3)c(-c3ccc(F)cc3)n2)cc1 = 105
• CNCc1cccc2c1OCCCCCCC(C)(O)CC(C)(C)S(=O)(=O)c1ccc(cc1)-c1cnc(N)c(n1)C(=O)N2 (stereo unspecified) = -59.4
• O=C(O)c1cn(C2CC2)c2cc(N3CCN(C(=O)CN4C(=O)CSC4=O)CC3)c(F)cc2c1=O = 102
• COc1ccc(-n2c(SCc3nnc(NC(=O)c4ccc(Br)cc4)s3)nc3cc(OC)c(OC)cc3c2=O)cc1 = 90.5
• Cc1ccc(CSc2nc(-c3ccc(Cl)cc3)c(C#N)c(N3CCNCC3)n2)cc1 = 52.1
• COc1ccccc1NCc1cccn1Cc1ccc(F)cc1 = 97
• C=C(C=O)[C@@H]1CC[C@]2(COC(C)=O)CC[C@]3(C)C(CC[C@@H]4[C@@]5(C)CC[C@H](OC(C)=O)C(C)(C)[C@@H]5CC[C@]43C)[C@@H]12 (stereo partly specified) = -83.6
• CCCn1cnc2c(c1=N)C(c1ccc(F)cc1)c1sc3c(CC)cccc3c1O2 (stereo unspecified) = 5.54
• C=CCn1c(SCC(=O)Nc2ccc(C(=O)/C=C/c3ccc(Br)cc3)cc2)nnc1-c1c[nH]c2ccccc12 = 49

Value of growth reported for the compound `O=C(CNc1nc(-c2cccc([N+](=O)[O-])c2)cs1)Nc1cccc(Cl)c1` is 115

According to the records, this compound Cc1cc(C)c(N2C(=O)CC(Nc3ccc(Cl)cc3Cl)C2=O)c(C)c1 (stereo unspecified) displays growth of 96

Please fill in: growth reported for `C#Cc1nc(/C=C/C(=O)c2nccn2C)cs1` = -81.4

growth reported for this compound `NS(=O)(=O)c1ccc(Nc2nc(N/N=C/c3ccc(Cl)cc3)nc(Nc3ccccc3)n2)cc1` : 60.4

The compound listed as `COc1cccc(N2CCN(c3ncnc4c3[nH]c3ccc(F)cc34)C[C@H]2C)c1` shows growth equal to 63.1

Summary for this compound, CNC1CCc2c(sc(NC(=O)c3ccc(C(C)(C)C)cc3)c2C(N)=O)C1 (stereo unspecified) : growth is -88.1

CC(O)c1cc2ccccc2c(=O)o1 (stereo unspecified) yielded growth of 97.3

For reference, reported growth for `O=C(Cn1c(-c2ccccc2)nc2cc(Cl)c(Cl)cc21)N=Nc1c(O)[nH]c2ccc(Cl)cc12` stands at 72.2
